biological target: MC4 receptor (Homo sapiens); test: MC4 EC50 functional potency (protocol E of US2005/0176772 / WO 2005/077935)
Sequence (P32245 whole entry): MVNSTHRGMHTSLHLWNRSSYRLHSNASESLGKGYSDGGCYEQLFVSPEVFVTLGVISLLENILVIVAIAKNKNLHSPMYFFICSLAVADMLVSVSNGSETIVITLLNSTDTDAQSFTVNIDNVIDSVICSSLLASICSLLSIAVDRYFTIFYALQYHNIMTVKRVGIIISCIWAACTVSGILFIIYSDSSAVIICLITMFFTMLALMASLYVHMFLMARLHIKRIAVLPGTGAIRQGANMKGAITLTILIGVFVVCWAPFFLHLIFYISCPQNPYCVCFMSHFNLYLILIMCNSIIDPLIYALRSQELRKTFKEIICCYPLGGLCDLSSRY
measured_metric: EC50 (nM)

Sample answers from the record:
[[record]]
compound = "COc1ccc([C@@H]2CN(c3ccc(Cl)nn3)C[C@H]2C(=O)N2CCCC(c3ccc(Cl)cc3)N(S(C)(=O)=O)CC2)c(F)c1 (stereo partly shown)"
subject_of_test = "MC4 receptor (Homo sapiens)"
measured_metric = "EC50"
measurement_unit = "nM"
reading = 123

[[record]]
compound = "COC(=O)N1CCN(C(=O)[C@@H]2CN(C(C)(C)C)C[C@H]2c2ccc(F)cc2F)CCC1c1ccc(Cl)cc1 (mixture of isomers)"
subject_of_test = "MC4 receptor (Homo sapiens)"
measured_metric = "EC50"
measurement_unit = "nM"
reading = 97.2

[[record]]
compound = "CS(=O)(=O)N1CCN(C(=O)[C@@H]2CN(c3cccnn3)C[C@H]2c2ccc(F)cc2F)CCCC1c1ccc(Cl)cc1 (mixture of isomers)"
subject_of_test = "MC4 receptor (Homo sapiens)"
measured_metric = "EC50"
measurement_unit = "nM"
reading = 25.1


A: COC(=O)N1CCN(C(=O)[C@@H]2CN(c3ccc(C#N)nn3)C[C@H]2c2ccc(F)cc2F)CCCC1c1ccc(OC)cc1 (mixture of isomers)
B: COc1ccc(C2CCCN(C(=O)[C@@H]3CN(c4ccc(C#N)nn4)C[C@H]3c3ccc(F)cc3F)CCN2C(C)=O)cc1 (mixture of isomers)
Prompt line: Given A and B , report the one with the higher recorded EC50. Pick one; state its label.
Response line: B
(B: 159 nM, A: 85.5 nM)

1: COc1ccc([C@@H]2CN(c3ccc(=O)[nH]n3)C[C@H]2C(=O)N2CCCC(c3ccc(Cl)cc3)N(S(C)(=O)=O)CC2)c(F)c1 (single isomer, unassigned) [Example 114]
2: CC(C)CC(=O)N1CCN(C(=O)[C@@H]2CN(C(C)(C)C)C[C@H]2c2ccc(F)cc2F)CCC[C@H]1c1ccc(Cl)cc1
3: CCN(CC)C(=O)N1CCN(C(=O)[C@@H]2CN(C(C)(C)C)C[C@H]2c2ccc(F)cc2F)CCC[C@H]1c1ccc(Cl)cc1
4: COc1ccc([C@@H]2CN(c3ccc(C#N)nn3)C[C@H]2C(=O)N2CCC[C@@H](c3ccc(Cl)cc3)N(C(=O)CC(F)(F)F)CC2)c(F)c1
Prompt line: Rank ascending by EC50. Give your ranking as a list of the labels in the requested order.
Response line: 3, 4, 2, 1
(3: 5.58 nM, 4: 8.31 nM, 2: 18.5 nM, 1: 73.4 nM)

P: CC(C)(C)N1C[C@@H](C(=O)N2CCC[C@@H](c3ccc(Cl)cc3)N(C(=O)C3CC(F)(F)C3)CC2)[C@H](c2ccc(F)cc2F)C1
Q: CC(C)C(=O)N1CCN(C(=O)[C@@H]2CN(c3ccc(C#N)nn3)C[C@H]2c2ccc(F)cc2F)CCC[C@H]1c1ccc(Cl)cc1
R: COC(=O)N1CCN(C(=O)[C@@H]2CN(c3ccc(=O)[nH]n3)C[C@H]2c2ccc(OC)cc2F)CCC[C@H]1c1ccc(Cl)cc1
Prompt line: Reorder: EC50, max to min. Give your ranking as a list of the labels in the requested order.
Response line: P, R, Q

I: CC(=O)N1CCN(C(=O)[C@@H]2CN(c3ccc(C#N)nn3)C[C@H]2c2ccc(F)cc2F)CCCC1c1ccccc1F (mixture of isomers)
II: COC(=O)N1CCN(C(=O)[C@@H]2CN(c3cccnn3)C[C@H]2c2ccc(F)cc2F)CCCC1c1ccccc1 (mixture of isomers)
III: COc1ccc([C@@H]2CN(c3ccc(C#N)nn3)C[C@H]2C(=O)N2CCCC(c3ccc(Cl)cc3)N(S(C)(=O)=O)CC2)c(F)c1 (mixture of isomers)
Prompt line: Reorder: EC50, max to min. Give your ranking as a list of the labels in the requested order.
Response line: III, I, II
(III: 36.1 nM, I: 19 nM, II: 7.16 nM)
